conditions: in ethanol, 303.1 K
outcome-measure: solubility (mole fraction)

# query-smiles, observed-result
rows = [
    ("CCn1nc(C(=O)O)c(=O)c2cc3c(cc21)OCO3", "6e-05"),
]

====

settings: in ethanol, 345.6 K

# query-smiles, solubility (mole fraction)
measured = [
    ("CCn1nc(C(=O)O)c(=O)c2cc3c(cc21)OCO3", 0.00037),
]

====

The following compounds are listed with their measured solubility (mole fraction) values.
details: in water, 308.2 K

# compound, solubility (mole fraction)
data = [
    ("CCn1nc(C(=O)O)c(=O)c2cc3c(cc21)OCO3", "5.4e-06"),
    ("CC1CCc2cc(F)cc3c(=O)c(C(=O)O)cn1c23 (stereo not drawn)", "2.6e-05"),
    ("CCn1cc(C(=O)O)c(=O)c2cc(F)c(N3CCNCC3)cc21", "9.1e-06"),
]

The values you see were collected from BigSolDB 2.1.
